# TESTED_ON: HLA-A*02:01 (Homo sapiens, UniProt P04439, D140Y/D185E/D98H/E176V/E277Q/G131W/G231S/I119V/I121R/I166T/I218V/L300P/L318F/N151K/N90K/P208A/P217A/Q86G/Q94H/R138H/R169H/T345S)
# EXPERIMENT: MHC binding assay: UV-ligand exchange with β2m ELISA (peptide exchange yield)
# CONDITION_SUMMARY: MHC class I binding score; binding to HLA-A*02:01 ranged by peptide exchange yield (UV-ligand exchange, β2m ELISA)
ENDPOINT_LABEL: Peptide Exchange

SUBSTANCE: 79 (GLQAKIQEA; listed as Homo sapiens) [compound 79]
ENDPOINT_VALUE: ″+++″ (≥50 = +++)

SUBSTANCE: 185 (VMDDQRDLI; listed as Homo sapiens) [compound 185]
ENDPOINT_VALUE: ″++″ (≥20% = ++)

SUBSTANCE: 67 (GLDDVTVEV; listed as Homo sapiens) [compound 67]
ENDPOINT_VALUE: ″++″ (≥20% = ++)

SUBSTANCE: 28 (AVLHLLLSV; listed as Homo sapiens) [compound 28]
ENDPOINT_VALUE: ″++″ (≥20% = ++)

// next item, Peptide Exchange requested
Peptide Exchange reading for 242 (ILLGIQELL; listed as Homo sapiens) [compound 242] : ″+++″ (≥50 = +++)
